# test.name: Solubility measurement (DMSO solution method), McIlvaine buffer pH 4.5 or 6.8
# Type: physicochemical
# condition.set: aqueous buffer, kinetic from dmso stock; McIlvaine buffer pH 4.5; DMSO stock diluted to 250 μM; 24 h shaking at ambient temperature; read-out: solubility pH 4.5
value.kind: solubility at 24 h

# annotated cases, reported solubility at 24 h shown
C[C@H](Oc1cc(-c2ccc(N)nc2)nc(-c2onc3c2CCC[C@@]32CCCc3sc(N)c(C#N)c32)n1)[C@@H]1CCCN1C ... > 170 µg/mL
C[C@H](O)Cn1ccc(-c2cc(O[C@@H](C)[C@@H]3CCCN3C)nc(-c3onc4c3CCC[C@@]43CCCc4sc(N)c(C#N)c43)n2)n1 ... > 128 µg/mL

Next molecule, solubility at 24 h to be filled in.
Qu. Item under review: `C[C@H](Oc1cc(N2CCNC3(CC3)C2)nc(-c2onc3c2CCC[C@@]32CCCc3sc(N)c(C#N)c32)n1)[C@@H]1CCCN1C` . Reported solubility at 24 h?
Ans. > 138 µg/mL

====

# Tested on: NCI-H2122 cells
# test.name: NCI-H2122 CTG proliferation assay (120 h) (NSCLC, G12C)
# Type: cell-based
# condition.set: Homo sapiens
pIC50: −log10 of the molar value.
value.kind: pIC50

C[C@H](Oc1cc(C2=CCOCC2)nc(-c2noc3c2CCC[C@@]32CCCc3sc(N)c(C#N)c32)n1)[C@@H]1CCCN1C [II-67] ... 5.89
C[C@H](Oc1cc(-n2cc(-c3cncs3)nn2)nc(-c2noc3c2CCC[C@@]32CCCc3sc(N)c(C#N)c32)n1)[C@@H]1CCCN1C [II-125] ... 6.11
C[C@H](Oc1cc(-c2ccn(C3CC3)n2)nc(-c2noc3c2CCC[C@@]32CCCc3sc(N)c(C#N)c32)n1)[C@@H]1CCCN1C [II-98] ... 5.99

====

# test.name: Caco-2 assay (permeability PappAB, PappBA, efflux ratio)
# Format: in vitro ADME
# condition.set: human, Caco-2; apical to basolateral; 10 μM test compound, pH 7.4
Recorded measurements of Papp A→B at 90 min, 10 μM, one per entry

C[C@H](Oc1cc(-c2ccn(-c3ccccc3)n2)nc(-c2noc3c2CCC[C@@]32CCCc3sc(N)c(C#N)c32)n1)[C@@H]1CCCN1C [II-89] ... < 10 ×10⁻⁶ cm/s
C[C@H](Oc1cc(-c2cccc(CO)c2)nc(-c2noc3c2CCC[C@@]32CCCc3sc(N)c(C#N)c32)n1)[C@@H]1CCCN1C [II-97] ... < 9.7 ×10⁻⁶ cm/s

Next compound, Papp A→B at 90 min, 10 μM to be filled in.
Qu. Item under review: C[C@H](Oc1cc(N2CCN(C)C2=O)nc(-c2noc3c2CCC[C@@]32CCCc3sc(N)c(C#N)c32)n1)[C@@H]1CCCN1C [II-75] . Reported Papp A→B at 90 min, 10 μM?
Ans. 5 ×10⁻⁶ cm/s

====

# Tested on: LOVO cells
# test.name: LOVO CTG proliferation assay (120 h) (CRC, G13D)
# Type: cell-based
# condition.set: Homo sapiens, CTG 120 h
pIC50: −log10 of the molar value.
value.kind: pIC50

C[C@H](Oc1cc([C@@H]2CCOC2)nc(-c2onc3c2CCC[C@@]32CCCc3sc(N)c(C#N)c32)n1)[C@@H]1CCCN1C [I-22] ... 7.51

(a) C[C@H](Oc1cc(-n2ccc(C(=O)N3CCCC3)n2)nc(-c2noc3c2CCC[C@@]32CCCc3sc(N)c(C#N)c32)n1)[C@@H]1CCCN1C [II-19]
(b) C[C@H](Oc1cc(-c2ccn(C[C@@H]3CCCO3)n2)nc(-c2noc3c2CCC[C@@]32CCCc3sc(N)c(C#N)c32)n1)[C@@H]1CCCN1C [II-43]
(c) C[C@H](Oc1cc(N2CCN(C)C3(CCOC3)C2)nc(-c2noc3c2CCC[C@@]32CCCc3sc(N)c(C#N)c32)n1)[C@@H]1C[C@@H](F)CN1C (stereo partly shown) [II-151]
Qu. Order the items by recorded pIC50; the first position goes to the largest value. Give me the labels in the order the question wants.
Ans. a, b, c

====

# Tested on: AsPC-1 cells
# test.name: AsPC-1 CTG proliferation assay (120 h) (pancreatic cancer, G12D)
# Type: cell-based
# condition.set: Homo sapiens, ASPC1
pIC50: −log10 of the molar value.
value.kind: pIC50

# annotated cases, reported pIC50 shown
C[C@H](Oc1cc(-n2ccc(-c3cnccn3)n2)nc(-c2noc3c2CCC[C@@]32CCCc3sc(N)c(C#N)c32)n1)[C@@H]1CCCN1C [II-130] ... 5.96
C[C@H](Oc1cc(-n2ccc(C(=O)N3CCCC3)n2)nc(-c2noc3c2CCC[C@@]32CCCc3sc(N)c(C#N)c32)n1)[C@@H]1CCCN1C [II-19] ... 6.06
CC(C)[C@@H]1CN(c2cc(O[C@@H](C)[C@@H]3CCCN3C)nc(-c3noc4c3CCC[C@@]43CCCc4sc(N)c(C#N)c43)n2)CCN1 [II-166] ... 5.89
C[C@H](Oc1cc(-n2cc3ccn([C@@H](C)c4ccccn4)c(=O)c3n2)nc(-c2noc3c2CCC[C@@]32CCCc3sc(N)c(C#N)c32)n1)[C@@H]1CCCN1C [II-205] ... 5.88
CN[C@H]1CCN(c2cc(O[C@@H](C)[C@@H]3CCCN3C)nc(-c3noc4c3CCC[C@@]43CCCc4sc(N)c(C#N)c43)n2)C1 [II-35] ... 6.15
C[C@H](Oc1cc(N2CCN(C)C3(CCC3)C2)nc(-c2onc3c2CCC[C@@]32CCCc3sc(N)c(C#N)c32)n1)[C@@H]1CCCN1C [I-44] ... 6.01

(A) C[C@H](Oc1cc(-n2ccc(C(=O)NC3COC3)n2)nc(-c2noc3c2CCC[C@@]32CCCc3sc(N)c(C#N)c32)n1)[C@@H]1CCCN1C [II-25]
(B) C[C@H](Oc1cc(N2CCC(N(C)C)CC2)nc(-c2noc3c2CCC[C@@]32CCCc3sc(N)c(C#N)c32)n1)[C@@H]1CCCN1C [II-48]
Qu. Given A and B , report the one with the higher recorded pIC50. Label of pick, please.
Ans. A

====

# test.name: Solubility measurement (DMSO solution method), McIlvaine buffer pH 4.5 or 6.8
# Assay type: physicochemical
# condition.set: aqueous buffer, kinetic from dmso stock; McIlvaine buffer pH 6.8; DMSO stock diluted to 250 μM; 24 h shaking at ambient temperature; read-out: solubility pH 6.8
value.kind: solubility at 24 h (mg/mL)

CNC(=O)c1ccn(-c2cc(O[C@@H](C)[C@@H]3CCCN3C)nc(-c3noc4c3CCC[C@@]43CCCc4sc(N)c(C#N)c43)n2)n1 [II-20] ... 0.033

(P) C[C@H](Oc1cc(N2CCOC3(CC3)C2)nc(-c2noc3c2CCC[C@@]32CCCc3sc(N)c(C#N)c32)n1)[C@@H]1CCCN1C [II-61]
(Q) C[C@H](Oc1cc(-n2ccnc2)nc(-c2noc3c2CCC[C@@]32CCCc3sc(N)c(C#N)c32)n1)[C@@H]1CCCN1C [II-69]
Qu. Given P and Q , report the one with the higher recorded solubility at 24 h. Label of pick, please.
Ans. Q
(Q: 0.076 mg/mL, P: 0.041 mg/mL)

====

# test.name: Solubility measurement (DMSO solution method), McIlvaine buffer pH 4.5 or 6.8
# Format: physicochemical
# condition.set: aqueous buffer, kinetic from dmso stock; McIlvaine buffer pH 6.8; DMSO stock diluted to 250 μM; 24 h shaking at ambient temperature; read-out: solubility pH 6.8
value.kind: solubility at 24 h

Qu. Item under review: `C[C@H](Oc1cc(N2CCNCC2)nc(-c2noc3c2CCC[C@@]32CCCc3sc(N)c(C#N)c32)n1)[C@@H]1CCCN1C` . Reported solubility at 24 h?
Ans. > 118 µg/mL

Qu. Item under review: C[C@H](Oc1cc(C2COCCO2)nc(-c2noc3c2CCC[C@@]32CCCc3sc(N)c(C#N)c32)n1)[C@@H]1CCCN1C (stereo partly drawn) . Reported solubility at 24 h?
Ans. > 121 µg/mL

Qu. Item under review: `C[C@H](Oc1cc(N2Cc3cnn(C)c3C2)nc(-c2noc3c2CCC[C@@]32CCCc3sc(N)c(C#N)c32)n1)[C@@H]1CCCN1C` . Reported solubility at 24 h?
Ans. < 1 µg/mL

====

# test.name: Solubility measurement (DMSO solution method), McIlvaine buffer pH 4.5 or 6.8
# Assay type: physicochemical
# condition.set: aqueous buffer, kinetic from dmso stock; McIlvaine buffer pH 4.5; DMSO stock diluted to 250 μM; 24 h shaking at ambient temperature; read-out: solubility pH 4.5
value.kind: solubility at 24 h

# annotated cases, reported solubility at 24 h shown
C[C@H](Oc1cc(N2CCCC3(COC3)C2)nc(-c2noc3c2CCC[C@@]32CCCc3sc(N)c(C#N)c32)n1)[C@@H]1CCCN1C ... > 146 µg/mL
C[C@H](Oc1cc(N2CCN(C)C3(CC3)C2)nc(-c2noc3c2CCC[C@@]32CCCc3sc(N)c(C#N)c32)n1)[C@@H]1CCCN1C ... > 150 µg/mL

Qu. Item under review: `C[C@H](NC(=O)c1ccn(-c2cc(O[C@@H](C)[C@@H]3CCCN3C)nc(-c3onc4c3CCC[C@@]43CCCc4sc(N)c(C#N)c43)n2)n1)c1ccccn1` . Reported solubility at 24 h?
Ans. > 150 µg/mL

Qu. Item under review: `C[C@H](Oc1cc(N2CCNC3(CC3)C2)nc(-c2noc3c2CCC[C@@]32CCCc3sc(N)c(C#N)c32)n1)[C@@H]1C[C@@H](F)CN1C` . Reported solubility at 24 h?
Ans. > 142 µg/mL
